# Tested on: SNB-78
# ASSAY NOTES: NCI tumour cell line growth inhibition, 48 h
Activity calls are given as the source filed them. No stated cut-off is given here; in the data, active = GI50 up to about 1.1 µM and inactive = higher.
PARAMETER: GI50

Solved cases (3 shown):
O=c1c2ccc(Br)cc2nc(-c2ccccc2)n1NC1OC(CO)C(O)C(O)C1O (stereo unspecified) :: > 100 µM (inactive)
COc1ccc(NCC#N)cc1 :: > 100 µM (inactive)
COc1cc([C@@H]2c3cc4c(cc3[C@@H](NC(=O)c3ccc(C#N)cc3)C3COC(=O)[C@@H]32)OCO4)cc(OC)c1O (stereo partly specified) :: 6.03 µM (inactive)

input: Entry CN(C)CC1(Cc2ccccc2)CC/C(=C\c2ccccc2)C1=O (stereo unspecified) has what GI50?
output: 52.2 µM (inactive)

input: How about this compound: Cc1ccc2ccc3ccc(C)nc3c2n1
output: > 100 µM (inactive)

input: How about this compound: CCCCC#COP(=O)(OCC)OCC
output: > 100 µM (inactive)

###

# System: RXF 393
# ASSAY NOTES: NCI tumour cell line growth inhibition, 48 h
Active and inactive are the calls of the source. No stated cut-off is given here; in the data, active = GI50 up to about 1.1 µM and inactive = higher.
PARAMETER: GI50

Solved cases (4 shown):
Nc1nc(NCC2(CO)CCC2)cc(=O)[nH]1 :: > 100 µM (inactive)
CO/N=C(\C(=O)O/C(=N/C1CCCCC1)NC1CCCCC1)c1csc(NC(c2ccccc2)(c2ccccc2)c2ccccc2)n1 :: 5.05 µM (inactive)
Cc1ccccc1/N=C/c1ccc(N(CCC#N)S(=O)(=O)c2ccccc2)cc1 :: > 100 µM (inactive)
Cc1ccc(C)c(COCCOCn2c(=O)[nH]c(=O)c3cc(Br)ccc32)c1 :: > 100 µM (inactive)

In the following, a different compound is considered.
input: Write down the reported GI50 of N#Cc1c(NC(=O)C(F)(F)F)sc2c3c(=O)c4ccccc4c(=O)c=3oc3ccccc3c12 , test system: RXF 393.
output: 10 µM (inactive)

###

Consider the following molecules and their measured GI50 readings.
# System: HCC 2998
# ASSAY NOTES: NCI tumour cell line growth inhibition, 48 h
The source made the active and inactive calls. Cut-off read from the data, not from the text of the source: active = GI50 up to about 1.1 µM and inactive = higher.

Cn1c2ccccc2c(=NNc2cccc(C(=O)O)c2)c2ccccc21 :: 3.3 µM (inactive)
CN(C)CC1(Cc2ccccc2)CC/C(=C\c2ccccc2)C1=O (configuration not stated) :: 19.9 µM (inactive)
NCC(=O)N1CCN(c2nc(N3CCCC3)c3nc(Cl)c(NCc4ccccc4)nc3n2)CC1 :: 1.66 µM (inactive)
CCc1cccc(CC)c1NC(=O)C(C#N)C1=C(Cl)C(=O)c2ccccc2C1=O (configuration not stated) :: 16.9 µM (inactive)
CSC1=C(SC)SC(=C2SC3=C(SC(=C4SCCS4)S3)S2)S1 :: > 100 µM (inactive)
O=C1/C(=C/c2ccc(Cl)cc2)Oc2ccccc21 :: > 100 µM (inactive)
CC(=O)Nc1ccc(C(=O)NN2C(=O)C(Cl)C2c2cc(Br)ccc2O)cc1 (configuration not stated) :: 11.2 µM (inactive)
COc1ccc(NC(=S)N/N=C/c2cccc(C)n2)cc1 :: 8.41 µM (inactive)

input: Write down the reported GI50 of C#CC(O)Cc1ccc(OC)c2occc12 (configuration not stated) , test system: HCC 2998.
output: > 100 µM (inactive)

input: How about this molecule: COC(=O)C1=C(OC(=O)/C(=C/c2ccccc2)c2ccc(Cl)cc2Cl)C(C(=O)OC)[C@@]2(O)[C@@H](C(=O)OC)[C@H](C)C[C@@H]1[C@@H]2C(=O)OC (some centres not stated)
output: > 100 µM (inactive)

input: How about this molecule: CC1(C)[C@@H](Cn2cnc3c(O)nc(N)nc32)CC[C@@]1(C)CO
output: > 100 µM (inactive)

input: How about this molecule: CCOC(=O)/C=C/n1c2ccccc2c(=O)c2cc(OC)ccc21
output: > 100 µM (inactive)

input: How about this molecule: CCCCC#COP(=O)(OCC)OCC
output: > 100 µM (inactive)

input: How about this molecule: CC[C@@H](C)[C@H](NC(=O)[C@H](Cc1ccccc1)NCC(F)(F)F)C(=O)OC(C)(C)C
output: > 100 µM (inactive)

input: How about this molecule: CC(=O)O[C@H](C[C@@H](C)[C@H]1C(=O)[C@H](O)[C@@]2(C)C3CC[C@H]4C(C)(C)[C@@H](OC5OCC(O)C(O)C5O)CC[C@@]45C[C@@]35CC[C@]12C)[C@@H]1OC1(C)C (some centres not stated)
output: 16.3 µM (inactive)

input: How about this molecule: O=c1[nH]nc(Cc2ccc(Cl)cc2)n1/N=C/c1c[nH]c2ccccc12
output: > 100 µM (inactive)

input: How about this molecule: Cc1nc2ccccc2n1Cc1ccc(NC(=S)Nc2ccccc2)cc1
output: 92 µM (inactive)

input: How about this molecule: CCCC(=O)OCC1OC(n2ccc(N)nc2=O)C(OC(=O)CCC)C1OC(=O)CCC (configuration not stated)
output: > 100 µM (inactive)

input: How about this molecule: Cc1ccc(/C=C2\N=C(N3CCCC(CO)C3)NC2=O)cc1 (configuration not stated)
output: > 100 µM (inactive)

input: How about this molecule: COC(=O)c1c(C(=O)OC)c2ccccn2c1-c1cc(OC)c(Br)c(=O)o1
output: > 100 µM (inactive)

input: How about this molecule: CC1C[C@]2(C)C(=S)Nc3ccccc3[C@@H]2Nc2ccccc21 (some centres not stated)
output: 22.2 µM (inactive)

input: How about this molecule: COC(=O)C(C(=O)C(=O)Nc1c(C)cccc1C(C)(C)C)c1nc2ccc(Cl)cc2nc1O (configuration not stated)
output: > 100 µM (inactive)

input: How about this molecule: COc1ccc(/C=C/C(=N/NC(=O)N/N=C(/C=C/c2ccc(OC)cc2)C(C)C)C(C)C)cc1
output: 38.7 µM (inactive)

input: How about this molecule: N=C(N)NS(=O)(=O)c1ccc(NC(=O)c2cccc3c(NNc4ccc(S(N)(=O)=O)cc4)c4ccccc4nc23)cc1
output: > 100 µM (inactive)

input: How about this molecule: Cc1ccc2nc(-c3ccccc3)cc(=O)n2c1
output: > 100 µM (inactive)

input: How about this molecule: Cc1ccc2c(c1)C(c1cccc3ccccc13)OC2=O (configuration not stated)
output: > 100 µM (inactive)

input: How about this molecule: C/C=C1/CC(C)C(C)(O)C(=O)OCC2C(O)CN3CCC(OC1=O)C23 (configuration not stated)
output: > 100 µM (inactive)

input: How about this molecule: O=C(Nc1ccc(Cl)c(C(F)(F)F)c1)C(=O)C(C(=O)/C=C/c1ccccc1)C1OC(=O)c2ccccc21 (configuration not stated)
output: > 100 µM (inactive)

input: How about this molecule: O=[N+]([O-])c1ccc(Cc2nc3ccccc3s2)cc1
output: > 100 µM (inactive)

input: How about this molecule: FC(F)(F)c1nc(-c2ccccc2)oc1Sc1oc(-c2ccccc2)nc1C(F)(F)F
output: > 100 µM (inactive)

input: How about this molecule: CCC1=NC(C(F)(F)F)(C(F)(F)F)N=C(/N=C(/N)N(C)C(C(C)C)P(=O)(OC(C)C)OC(C)C)O1 (configuration not stated)
output: > 100 µM (inactive)

input: How about this molecule: CC(C)NC(=O)CCN(C(=O)O)S(=O)(=O)c1ccc(NC(=O)c2ccccc2)cc1
output: > 100 µM (inactive)
